Assay: Long-term accelerated stability tests
Assay type: physicochemical
Conditions: solid storage; 25 °C, 60% RH, 3M; read-out: Purity (%)
measured.metric: remaining at 2160 h (%)
Could you give me the number in %? Just the number is fine.

Q: If you can, please state the reported remaining at 2160 h value of FC1(F)Oc2ccc(Nc3ccc4cccc(Cl)c4n3)cc2O1 [crystal form A] .
Ans: 100

----------
Assay: Influencing factors stability test (light exposure, high temperature, high humidity)
Format: physicochemical
Conditions: solid storage, 60°C, 5 days; read-out: Purity%
measured.metric: remaining at 120 h (%)
Could you give me the number in %? Just the number is fine.

Q: If you can, please state the reported remaining at 120 h value of FC1(F)Oc2ccc(Nc3ccc4cccc(Cl)c4n3)cc2O1 [crystal form A] .
Ans: 100
